System: PC-3 prostate
Test: NCI-60 one-dose screen, 48 h (100 = growth as untreated, 0 = no growth, -100 = all killed)
Settings: 10 µM unless noted
Procedure: Growth inhibition of the PC-3 human tumor cell line is measured as a screen for anti-cancer activity. Cells are grown in 96 well plates and exposed to the test compound for 48 hours. Compounds are tested at a single concentration, which is 10^-5 M for most compounds. The reported endpoint is percent growth (GI% or GIPRCNT), where numbers from 0 - 100% represent growth inhibition, and numbers from -100% - 0 represent cell death. For example, a value of 40 represents 60% growth inhibition. […]
Compounds without any hit were thinned out: in the full panel of roughly 83,000, 20% have a hit.
What growth was measured for each of the following?
Field format: number, assumed %, no unit text.

growth for COc1cc2c(cc1-c1c(C)noc1C)ncc1nc(C3CCOCC3)n([C@@H](C)COC(F)F)c12 ?
39.2

Next up: O=C1/C(=C/c2ccccc2O)N=C2SCCCN12
88.2

Next up: O=C(N/N=C/c1c[nH]c2ccccc12)c1cc(-c2ccccc2)on1
88

Next up: CCN(CC)c1ccc(/C=N\NC(=O)/C=C/C=C/c2ccc3c(c2)OCO3)c(O)c1
40.9

---

system: SF-268 CNS; experiment: NCI-60 one-dose screen, 48 h (100 = growth as untreated, 0 = no growth, -100 = all killed); conditions: 10 µM unless noted
This is part of a sample that, as a whole, favours compounds with a hit. Of some 83,000 tested, about 20% had one in any assay.
Could you label it MET if measured growth is 70% or higher, and NOT MET otherwise?

Does CCC(=O)c1ccc(Cl)s1 have a reported growth of at least 70%?
MET

Next up: Cc1cc(NS(=O)(=O)c2ccc(-c3cnc(C4CC4)o3)cc2)ccc1Cl
NOT MET

Next up: COc1ccc(NC(=O)c2ccc(/C=C/C(=O)c3ncc[nH]3)cc2)cc1
MET

Next up: CC/C=C\C[C@H](O)C/C=C1/C(=O)C=C[C@@]1(C)C/C=C\CCCC(=O)OC
MET

Next up: CC1SC(c2ccc(N(C)C)cc2)N(NC(=O)C(O)(c2ccccc2)c2ccccc2)C1=O (stereo unspecified)
MET

Next up: NC(=NCCCC1(c2ccccc2)CCCC1)Nc1ccc(Cl)cc1
NOT MET

Next up: COc1cc(/C=C/C(=O)c2c(C)oc3nc[nH]c(=O)c23)cc(OC)c1OC
MET

Next up: Cc1ccc2oc(=O)cc(C3c4ccc([nH]4)C(c4cc(=O)oc5ccc(C)cc45)c4ccc([nH]4)C(c4cc(=O)oc5ccc(C)cc45)c4ccc([nH]4)C(c4cc(=O)oc5ccc(C)cc45)c4ccc3[nH]4)c2c1 (stereo unspecified)
NOT MET

Next up: COc1cccc2c1C(=O)c1c(O)c3c(c(O)c1C2=O)C[C@](O)(C(=O)CO)C[C@H]3O[C@@H]1C[C@@H](NC(=O)CCCN(C)C2(c3ccc(F)cc3)CC3CCC2C3)[C@H](O)[C@@H](C)O1 (stereo partly specified)
NOT MET

Next up: Cc1nc(/N=C(\N)NC(=O)Nc2cccc([N+](=O)[O-])c2)sc1C
MET

Next up: COc1ccc(/C=C\c2cc(OC)c(OC)c(OC)c2)cc1OCC(=O)Nc1ccc2nc(C)sc2c1
NOT MET

Next up: COc1cc(C2CC(=O)c3ccccc3N2)cc(OC)c1OC (stereo unspecified)
MET

Next up: COC(=O)c1ccc(Cn2cnc3c(N)ncnc32)cc1
MET

Next up: C[n+]1ccccc1/C=C/c1ccc2cccc(O)c2n1
MET

Next up: COc1cc(/C=C/c2cc(/C=C/c3ccc(O)c(OC)c3)n(-c3c(Cl)cccc3Cl)c(=O)n2)ccc1O
NOT MET

Next up: CCCCn1c(-c2ccc(C(=O)O/N=C(\N)c3ccc4c(c3)OCO4)cc2)nc(-c2ccccc2)c1-c1ccccc1
NOT MET

Next up: COc1ccc(-c2cc(C(=O)N=Nc3c(O)[nH]c4ccc(Br)cc34)no2)cc1
MET

Next up: OC(COc1cccc2ccccc12)CN1CCN(c2ccccc2Cl)CC1 (stereo unspecified)
MET

Next up: O=C1c2cc3c(cc2-c2c1c1ccc(Cl)cc1c(=O)n2CCCN1CCOCC1)OCO3
NOT MET

---

system: NCI-H322M lung; assay: NCI-60 one-dose screen, 48 h; conditions: 10 µM unless noted
Compounds without any hit were thinned out: in the full panel of roughly 83,000, 20% have a hit. Calls of active or inactive are those of the source. Rule for the calls: active = growth percent below 10; inactive = the rest.
Lab note: assign the record to one of active, inactive

I'd appreciate the recorded outcome for COc1ccccc1NS(=O)(=O)c1ccc2oc(SC(C)C)nc2c1 from this test.
inactive

Next up: O=C1OC(c2ccccc2)C(O)=C1c1ccccc1 (configuration not stated)
inactive

Next up: O=C(Nc1cccc2[nH]c(C(F)(F)F)nc12)c1ccc(-n2cnnn2)cc1
inactive

Next up: CCCOc1ccc2nc(NC(=O)OC)[nH]c2c1
inactive

Next up: COc1cc(/C=C/C(=O)Nc2cccnc2Nc2ccc(F)cc2)cc(OC)c1OC
inactive

Next up: CSc1nc(NCCN2CCOCC2)c(C#N)c(-c2cccc([N+](=O)[O-])c2)n1
inactive

Next up: Cn1cc(C(=O)c2nc(-c3c[nH]c4ccccc34)no2)c2ccccc21
inactive

Next up: COc1cccc(-c2nc3sccn3c2-c2ccnc(NCCCNS(=O)(=O)c3cccc(F)c3)c2)c1
inactive

Next up: CCCN1CCN(c2ccc3nc(-c4ccc5nc(-c6ccc(OCC)cc6)[nH]c5c4)[nH]c3c2)CC1
inactive

Next up: CCCOc1cc2ccccc2cc1C(=O)Nc1nc(N)c2c(ccc3nccc32)[nH]1
active

Next up: CCN=C1C=CC(=C(c2ccc(N)cc2)c2ccc(N(CC)CC)c(C)c2)C=C1
active

Next up: FC(F)(F)c1[nH]ncc1-c1nc2ccc3n[nH]c(C#Cc4cccnc4)c3c2c2c1CCCC2
inactive

Next up: CN(C)S(=O)(=O)c1ccc(S(=O)(=O)Nc2cccc(Cl)c2N2CCCCC2)cc1
inactive

Next up: Cc1cc(C)c2nc3nc(C)cc(C)c3c(N)c2c1
inactive

Next up: COc1cc2nnc3c4cccnc4[nH]c3c2cc1OC
inactive

Next up: C#CC(F)(F)[C@]1(O)CC[C@H]2[C@@H]3CCC4=CC(=O)CCC4=C3[C@@H](c3ccc(C(C)=O)cc3)C[C@@]21C
inactive

Next up: COc1ccc(-c2nc(SCC(=O)Nc3ccc(C(=O)/C=C/c4ccc(Cl)cc4)cc3)[nH]c(=O)c2C#N)cc1
inactive

Next up: Cc1nc(/N=C(\N)NC(=O)Nc2cccc([N+](=O)[O-])c2)sc1C
inactive

Next up: COc1ccc(C(=O)c2sc3nc(C)cc(C)c3c2N)cc1OC
inactive

Next up: O=C(COc1ccc(-c2nc3cc(Cl)c(Cl)cc3[nH]2)cc1)N=Nc1c(O)[nH]c2ccccc12
active

Next up: CC[N+](CC)=c1sc2c(s1)C(c1ccc(Cl)cc1)Oc1ccc(Cl)cc1-2 (configuration not stated)
inactive

Next up: COc1cc2c(cc1OC)C(Sc1ccc(SC)cc1)c1c(nc(N)c(C#N)c1N)O2 (configuration not stated)
active

---

What growth was measured for each of the following?
test system: SR leukemia; experiment: NCI-60 one-dose screen, 48 h (100 = growth as untreated, 0 = no growth, -100 = all killed); details: 10 µM unless noted
The panel holds about 83,000 compounds, 20% with a hit somewhere; the sample as a whole holds those more often.
Field format: number, assumed %, no unit text.

growth for O=C1/C(=C/c2ccccc2)SC(=S)N1CCc1ccc(O)cc1 ?
93.7

Next up: CCOc1ccc(-n2nc(C(=O)Nc3cc(OC)c(OC)c(OC)c3)nc2-c2cc(OC)c(OC)c(OC)c2)cc1
40.7

Next up: Cc1ccc2c(c1)C(=O)/C(=C/c1cccc(OCC(=O)c3ccc(Cl)cc3)c1)CS2
9.06

---

tested on: EKVX NSCLC; test: NCI-60 one-dose screen, 48 h (100 = growth as untreated, 0 = no growth, -100 = all killed); details: 10 µM unless noted
About 83,000 compounds went through this panel and 20% of them were active in at least one assay; those are over-represented in the sample as a whole. Calls of active or inactive are those of the source. How the source made its calls: active means growth percent below 10; inactive means the rest.
What growth was measured for each of the following?

growth for COc1cc(C(=O)/C=C/c2cccnc2Nc2ccc(Cl)cc2)cc(OC)c1OC ?
23.7% (inactive)

Next up: O=C1C=C(OCC=C(Cl)Cl)C(=O)c2ccccc21
93.3% (inactive)

Next up: CCOC(=O)c1sc2nc(-c3cccc(OC)c3)nc(N3CCOCC3)c2c1C
87.7% (inactive)

Next up: COc1cc2nc(N3CCCC3)nc(NCc3ccccc3)c2cc1OC
74.7% (inactive)

Next up: Cn1c(=O)c2c(nc3n(-c4ccc(Cl)cc4Cl)c(Sc4nc(-c5ccccc5)c(C#N)c(=O)[nH]4)cn23)n(C)c1=O
59.5% (inactive)

Next up: O=C1c2cc3c(cc2-c2c1c1ccc(Cl)cc1c(=O)n2CCCN1CCOCC1)OCO3
93.8% (inactive)

Next up: COc1ccc(-c2cc(Nc3ccnc(N4CCOCC4)n3)on2)cc1
50.9% (inactive)

Next up: CCCSc1ccc2nc(NC(=O)OC)[nH]c2c1
58.2% (inactive)

Next up: O=C1c2c(O)cc(O)cc2-c2c(-c3ccc(O)cc3)oc3cc(O)cc1c23
62.2% (inactive)

Next up: CC(C)c1c(C(=O)c2ccccc2)c(-c2ccccc2)c(-c2ccc(F)cc2)n1CC[C@@H](O)C[C@@H](O)CC(=O)O
68.2% (inactive)
